Tested on: COLO 320
Test: Induction of apoptosis in human COLO320 cells at 2 uM after 24 hrs by Annexin V-FITC/propidium iodide staining based flow cytometry relative to M627
Assay type: functional
Values of Activity strictly less than 40% map to True, and values of at least 40% map to False.

INSERT INTO results (query_smiles, label_class) VALUES
  ('O=C1[Se]C(=O)c2ccccc21', 'False');

Query :: API: query returns whether the compound falls strictly under 40% in Activity. Query: COc1cc(OC)cc(C(=O)[Se]CC(=O)C(C)(C)C)c1
Result :: False

Query :: API: query returns whether the compound falls strictly under 40% in Activity. Query: CC(=O)C[Se]C(=O)c1ccc(Cl)cc1
Result :: False

Query :: API: query returns whether the compound falls strictly under 40% in Activity. Query: N.N#CS
Result :: True

Query :: API: query returns whether the compound falls strictly under 40% in Activity. Query: CC(C)(C)C(=O)C[Se]C(=O)c1ccc(Cl)cc1
Result :: False

Query :: API: query returns whether the compound falls strictly under 40% in Activity. Query: C[Se]C(=O)c1cccc(C(=O)[Se]C)c1
Result :: True

Query :: API: query returns whether the compound falls strictly under 40% in Activity. Query: C[Se]C(=O)c1ccc(C(=O)[Se]C)cc1
Result :: True

Query :: API: query returns whether the compound falls strictly under 40% in Activity. Query: C[Se]C(=O)c1ccc(C(=O)[Se]C)s1
Result :: True
